- System name: UniProt:Q9NYV4
- Sequence (Q9NYV4 whole entry): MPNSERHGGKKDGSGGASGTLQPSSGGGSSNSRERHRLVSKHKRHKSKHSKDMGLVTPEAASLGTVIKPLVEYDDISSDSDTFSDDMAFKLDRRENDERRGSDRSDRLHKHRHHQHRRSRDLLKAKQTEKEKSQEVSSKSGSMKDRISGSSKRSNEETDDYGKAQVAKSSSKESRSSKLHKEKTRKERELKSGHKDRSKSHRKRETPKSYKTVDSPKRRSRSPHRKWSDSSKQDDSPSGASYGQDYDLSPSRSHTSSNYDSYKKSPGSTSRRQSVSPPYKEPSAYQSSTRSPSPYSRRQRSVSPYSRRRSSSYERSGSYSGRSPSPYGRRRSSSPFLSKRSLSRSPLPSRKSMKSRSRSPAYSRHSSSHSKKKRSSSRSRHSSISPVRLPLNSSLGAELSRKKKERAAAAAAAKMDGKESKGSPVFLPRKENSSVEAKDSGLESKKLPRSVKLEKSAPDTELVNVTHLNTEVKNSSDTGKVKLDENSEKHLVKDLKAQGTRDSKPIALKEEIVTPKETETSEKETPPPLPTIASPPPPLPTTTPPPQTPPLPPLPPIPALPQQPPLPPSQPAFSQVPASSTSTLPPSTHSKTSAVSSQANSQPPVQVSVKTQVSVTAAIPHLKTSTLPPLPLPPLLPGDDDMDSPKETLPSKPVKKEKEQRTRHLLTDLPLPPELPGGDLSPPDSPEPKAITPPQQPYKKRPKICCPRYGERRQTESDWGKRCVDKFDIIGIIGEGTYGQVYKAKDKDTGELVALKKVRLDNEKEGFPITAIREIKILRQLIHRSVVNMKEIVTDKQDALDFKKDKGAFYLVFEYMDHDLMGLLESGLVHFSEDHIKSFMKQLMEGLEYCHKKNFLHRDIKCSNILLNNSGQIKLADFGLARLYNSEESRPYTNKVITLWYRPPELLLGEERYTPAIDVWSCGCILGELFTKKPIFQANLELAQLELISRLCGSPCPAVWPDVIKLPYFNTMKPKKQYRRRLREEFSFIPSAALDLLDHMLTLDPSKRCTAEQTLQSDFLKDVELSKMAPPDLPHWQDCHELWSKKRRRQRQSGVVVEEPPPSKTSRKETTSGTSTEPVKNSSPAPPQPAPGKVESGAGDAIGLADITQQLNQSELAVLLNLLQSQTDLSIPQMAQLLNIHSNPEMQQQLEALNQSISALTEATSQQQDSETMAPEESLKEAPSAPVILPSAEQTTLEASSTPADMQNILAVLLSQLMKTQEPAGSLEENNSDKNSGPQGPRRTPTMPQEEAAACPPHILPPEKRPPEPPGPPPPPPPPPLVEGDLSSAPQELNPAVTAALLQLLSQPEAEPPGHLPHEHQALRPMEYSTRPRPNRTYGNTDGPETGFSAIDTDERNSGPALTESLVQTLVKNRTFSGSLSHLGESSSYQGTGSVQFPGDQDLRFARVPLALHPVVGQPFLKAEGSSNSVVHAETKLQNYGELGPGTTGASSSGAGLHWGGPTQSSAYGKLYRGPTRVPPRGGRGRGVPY
- Type: cell-based
- Condition set: CDK12 (Q9NYV4-1); experiment wp016
So basically: logFC CDK12 at -0.9 or higher? That is 1. Lower than -0.9? That is 0.

Molecule: CC(C)S(=O)(=O)c1ccccc1Nc1nc(Nc2ccc(N3CCN(CCOCCOCCOCCNC(=O)CNc4ccc5c(c4)C(=O)N(C4CCC(=O)NC4=O)C5=O)CC3)cc2)ncc1Cl (stereo not drawn)
Category label: 1
//
Molecule: CC(C)S(=O)(=O)c1ccccc1Nc1nc(Nc2ccc(N3CCN(CCOCCNC(=O)CNc4cccc5c4C(=O)N(C4CCC(=O)NC4=O)C5=O)CC3)cc2)ncc1Cl (stereo not drawn)
Category label: 0
//
Molecule: CC(C)S(=O)(=O)c1ccccc1Nc1nc(Nc2ccc(N3CCN(CCOCCOCCOCCNC(=O)CNc4cccc5c4C(=O)N(C4CCC(=O)NC4=O)C5=O)CC3)cc2)ncc1Cl (stereo not drawn)
Category label: 1
//
Molecule: CC(C)S(=O)(=O)c1ccccc1Nc1nc(Nc2ccc(N3CCN(CCOCCOCCNC(=O)CNc4ccc5c(c4)C(=O)N(C4CCC(=O)NC4=O)C5=O)CC3)cc2)ncc1Cl (stereo not drawn)
Category label: 1

Field: next molecule
Quick check: does CC(C)S(=O)(=O)c1ccccc1Nc1nc(Nc2ccc(N3CCN(CCOCCNC(=O)CNc4ccc5c(c4)C(=O)N(C4CCC(=O)NC4=O)C5=O)CC3)cc2)ncc1Cl (stereo not drawn) have logFC CDK12 greater than or equal to -0.9?
0

====

- Test system: protein kinases (human kinome)
- Assay type: cell-based
- Condition set: Experiment wp146; direction down
Measure: logFC MAPK8 (P45983-4)
Answers are plain numbers.

# count of solved cases: 3
Compound: NC(=O)c1c(F)cccc1Nc1nc(Nc2ccc(S(=O)(=O)NCCOCCOCCOCCOCCNc3cccc4c3C(=O)N(C3CCC(=O)NC3=O)C4=O)cc2)ncc1Br (stereo not shown)
logFC MAPK8 (P45983-4): −0.9813
//
Compound: Cc1cc(Nc2ncc(Br)c(Nc3cccc(F)c3C(N)=O)n2)ccc1S(=O)(=O)NCCOCCOCCOCCOCCNc1cccc2c1C(=O)N(C1CCC(=O)NC1=O)C2=O (stereo not shown)
logFC MAPK8 (P45983-4): −0.7761
//
Compound: NC(=O)c1c(F)cccc1Nc1nc(NC2CCN(S(=O)(=O)CCNC(=O)CCCCCCCCOc3cccc4c3C(=O)N(C3CCC(=O)NC3=O)C4=O)CC2)ncc1Br (stereo not shown)
logFC MAPK8 (P45983-4): −2.112

Form field, logFC MAPK8 (P45983-4) with protein kinases (human kinome), item Cc1cc(S(=O)(=O)NCCOCCOCCOCCOCCNc2cccc3c2C(=O)N(C2CCC(=O)NC2=O)C3=O)ccc1Nc1ncc(Br)c(Nc2cccc(F)c2C(N)=O)n1 (stereo not shown) : −0.5524

====

- System name: protein kinases (human kinome) (Homo sapiens, UniProt P53667)
- Sequence (P53667 whole entry): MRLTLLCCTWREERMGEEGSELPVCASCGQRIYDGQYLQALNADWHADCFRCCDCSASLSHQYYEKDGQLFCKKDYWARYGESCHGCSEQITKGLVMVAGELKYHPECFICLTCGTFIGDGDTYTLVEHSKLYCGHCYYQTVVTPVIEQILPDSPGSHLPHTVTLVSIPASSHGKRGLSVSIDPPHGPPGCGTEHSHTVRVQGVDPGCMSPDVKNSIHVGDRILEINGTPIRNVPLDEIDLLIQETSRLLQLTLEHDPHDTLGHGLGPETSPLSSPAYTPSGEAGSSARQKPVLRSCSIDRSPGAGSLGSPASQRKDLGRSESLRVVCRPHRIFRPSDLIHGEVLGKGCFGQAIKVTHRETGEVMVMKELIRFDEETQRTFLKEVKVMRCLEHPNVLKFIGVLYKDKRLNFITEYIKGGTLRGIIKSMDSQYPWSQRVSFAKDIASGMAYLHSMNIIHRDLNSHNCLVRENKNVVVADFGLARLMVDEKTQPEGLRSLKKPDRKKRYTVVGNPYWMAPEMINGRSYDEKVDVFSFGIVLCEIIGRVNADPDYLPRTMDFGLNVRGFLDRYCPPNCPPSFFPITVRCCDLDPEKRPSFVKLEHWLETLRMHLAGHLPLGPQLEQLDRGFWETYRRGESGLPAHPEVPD
- Assay type: cell-based
- Condition set: LIMK1 (P53667-1), direction down; experiment wp137
Measure: logFC LIMK1
Give bare numbers.

Field: example entries. Status: answers known.
Compound: CC(C)(C)c1nc(-c2cccc(NS(=O)(=O)c3c(F)cccc3F)c2F)c(-c2ccnc(NCCOCCNC(=O)CCOCCOCCNc3cccc4c3C(=O)N(C3CCC(=O)NC3=O)C4=O)n2)s1 (stereo not shown) [DD.03.106]
System name: protein kinases (human kinome) (Homo sapiens, UniProt P53667)
Readout value: −1.981

Compound: CC(C)(C)c1nc(-c2cccc(NS(=O)(=O)c3c(F)cccc3F)c2F)c(-c2ccnc(NCCOCCNC(=O)CCOCCOCCNc3cccc4c3CN(C3CCC(=O)NC3=O)C4=O)n2)s1 (stereo not shown) [DD.03.107]
System name: protein kinases (human kinome) (Homo sapiens, UniProt P53667)
Readout value: −1.222

Compound: CC(C)S(=O)(=O)c1ccccc1Nc1nc(Nc2ccc(N3CCN(CCOCCOCCC(=O)NCCNc4cccc5c4CN(C4CCC(=O)NC4=O)C5=O)CC3)cc2)ncc1Cl (stereo not shown) [TL13.97]
System name: protein kinases (human kinome) (Homo sapiens, UniProt P53667)
Readout value: −1.173

Now look at this one.
The recorded logFC LIMK1 with protein kinases (human kinome) (Homo sapiens, UniProt P53667) for CC(C)S(=O)(=O)c1ccccc1Nc1nc(Nc2ccc(N3CCN(CCOCCOCCNC(=O)CNc4cccc5c4C(=O)N(C4CCC(=O)NC4=O)C5=O)CC3)cc2)ncc1Cl (stereo not shown) [TL12.186] was −0.8734

====

Give measured logFC of CDK5 for each item. Keep answers brief.
- System name: protein kinases (human kinome) (Homo sapiens)
- Assay type: cell-based
- Condition set: Accession Q00535; experiment wp016
Numbers only.

A selection of reference data follows.
Molecule: CC(C)S(=O)(=O)c1ccccc1Nc1nc(Nc2ccc(N3CCN(CCOCCOCCOCCNC(=O)CNc4ccc5c(c4)C(=O)N(C4CCC(=O)NC4=O)C5=O)CC3)cc2)ncc1Cl (stereo not drawn) [SK.3.89]
Readout value: −0.6254

Molecule: CC(C)S(=O)(=O)c1ccccc1Nc1nc(Nc2ccc(N3CCN(CCOCCNC(=O)CNc4cccc5c4C(=O)N(C4CCC(=O)NC4=O)C5=O)CC3)cc2)ncc1Cl (stereo not drawn) [SK.3.91]
Readout value: −1.126

Please turn your attention to the following entry.
molecule CC(C)S(=O)(=O)c1ccccc1Nc1nc(Nc2ccc(N3CCN(CCOCCOCCNC(=O)CNc4cccc5c4C(=O)N(C4CCC(=O)NC4=O)C5=O)CC3)cc2)ncc1Cl (stereo not drawn) [TL12.186] , logFC of CDK5 observed: −0.9261

====

- System name: UniProtKB P51451
- Sequence (P51451 whole entry): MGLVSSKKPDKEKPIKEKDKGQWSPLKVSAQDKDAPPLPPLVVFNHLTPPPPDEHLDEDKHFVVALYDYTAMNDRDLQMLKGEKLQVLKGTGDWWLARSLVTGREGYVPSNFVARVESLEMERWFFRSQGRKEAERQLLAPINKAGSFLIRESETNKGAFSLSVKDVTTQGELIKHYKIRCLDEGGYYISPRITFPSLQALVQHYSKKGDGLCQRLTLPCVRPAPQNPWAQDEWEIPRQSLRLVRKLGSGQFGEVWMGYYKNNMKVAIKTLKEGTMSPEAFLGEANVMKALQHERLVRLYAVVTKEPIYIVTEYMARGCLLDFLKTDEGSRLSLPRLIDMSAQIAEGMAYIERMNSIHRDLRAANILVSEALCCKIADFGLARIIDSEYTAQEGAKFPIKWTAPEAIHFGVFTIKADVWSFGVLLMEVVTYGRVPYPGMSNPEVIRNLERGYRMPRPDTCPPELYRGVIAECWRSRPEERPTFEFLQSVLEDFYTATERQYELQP
- Format: cell-based
- Condition set: BLK P51451; experiment wp016
Measure: logFC of BLK
Give bare numbers.

Example cases with answers are listed next.
Compound: CC(C)S(=O)(=O)c1ccccc1Nc1nc(Nc2ccc(N3CCN(CCOCCOCCOCCNC(=O)CNc4cccc5c4C(=O)N(C4CCC(=O)NC4=O)C5=O)CC3)cc2)ncc1Cl (stereo not drawn)
Readout value: −0.9329
//
Compound: CC(C)S(=O)(=O)c1ccccc1Nc1nc(Nc2ccc(N3CCN(CCOCCOCCOCCNC(=O)CNc4ccc5c(c4)C(=O)N(C4CCC(=O)NC4=O)C5=O)CC3)cc2)ncc1Cl (stereo not drawn)
Readout value: −1.335
//
Compound: CC(C)S(=O)(=O)c1ccccc1Nc1nc(Nc2ccc(N3CCN(CCOCCOCCNC(=O)CNc4ccc5c(c4)C(=O)N(C4CCC(=O)NC4=O)C5=O)CC3)cc2)ncc1Cl (stereo not drawn)
Readout value: −1.613
//
Compound: CC(C)S(=O)(=O)c1ccccc1Nc1nc(Nc2ccc(N3CCN(CCOCCOCCNC(=O)CNc4cccc5c4C(=O)N(C4CCC(=O)NC4=O)C5=O)CC3)cc2)ncc1Cl (stereo not drawn)
Readout value: −1.475
//
Compound: CC(C)S(=O)(=O)c1ccccc1Nc1nc(Nc2ccc(N3CCN(CCOCCNC(=O)CNc4cccc5c4C(=O)N(C4CCC(=O)NC4=O)C5=O)CC3)cc2)ncc1Cl (stereo not drawn)
Readout value: −1.446

So, CC(C)S(=O)(=O)c1ccccc1Nc1nc(Nc2ccc(N3CCN(CCOCCNC(=O)CNc4ccc5c(c4)C(=O)N(C4CCC(=O)NC4=O)C5=O)CC3)cc2)ncc1Cl (stereo not drawn) ? Its logFC of BLK was −1.502

====

- System name: protein kinases (human kinome) (Homo sapiens, UniProt P16591)
- Sequence (P16591 whole entry): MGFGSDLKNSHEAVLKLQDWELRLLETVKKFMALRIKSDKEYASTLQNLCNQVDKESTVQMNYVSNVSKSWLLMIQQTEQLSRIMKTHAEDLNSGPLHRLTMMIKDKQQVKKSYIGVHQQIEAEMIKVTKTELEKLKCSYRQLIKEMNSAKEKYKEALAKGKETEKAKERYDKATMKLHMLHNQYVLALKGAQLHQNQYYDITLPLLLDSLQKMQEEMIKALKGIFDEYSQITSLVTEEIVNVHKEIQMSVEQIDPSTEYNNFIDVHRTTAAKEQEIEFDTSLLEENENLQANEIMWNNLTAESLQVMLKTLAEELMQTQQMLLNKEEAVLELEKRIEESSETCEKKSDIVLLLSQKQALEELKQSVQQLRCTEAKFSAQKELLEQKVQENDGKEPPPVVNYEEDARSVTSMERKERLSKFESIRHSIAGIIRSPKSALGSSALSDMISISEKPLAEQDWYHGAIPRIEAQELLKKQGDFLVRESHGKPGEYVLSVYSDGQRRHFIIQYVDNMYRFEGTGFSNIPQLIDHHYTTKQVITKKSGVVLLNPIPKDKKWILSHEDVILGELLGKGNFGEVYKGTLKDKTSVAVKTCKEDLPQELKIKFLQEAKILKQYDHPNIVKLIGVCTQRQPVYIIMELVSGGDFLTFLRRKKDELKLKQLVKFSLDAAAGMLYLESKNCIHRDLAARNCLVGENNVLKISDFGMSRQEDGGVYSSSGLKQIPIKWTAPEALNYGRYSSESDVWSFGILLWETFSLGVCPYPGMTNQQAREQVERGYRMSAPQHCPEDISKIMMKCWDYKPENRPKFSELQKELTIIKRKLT
- Type: cell-based
- Condition set: FER P16591-1; experiment wp016
Measure: logFC of FER
Give bare numbers.

// each listed compound needs a value for logFC of FER
1. CC(C)S(=O)(=O)c1ccccc1Nc1nc(Nc2ccc(N3CCN(CCOCCNC(=O)CNc4ccc5c(c4)C(=O)N(C4CCC(=O)NC4=O)C5=O)CC3)cc2)ncc1Cl (stereo not drawn) [SK.3.93]
2. CC(C)S(=O)(=O)c1ccccc1Nc1nc(Nc2ccc(N3CCN(CCOCCOCCOCCNC(=O)CNc4ccc5c(c4)C(=O)N(C4CCC(=O)NC4=O)C5=O)CC3)cc2)ncc1Cl (stereo not drawn) [SK.3.89]

["−2.64", "−2.262"]

Record CC(C)S(=O)(=O)c1ccccc1Nc1nc(Nc2ccc(N3CCN(CCOCCOCCOCCNC(=O)CNc4cccc5c4C(=O)N(C4CCC(=O)NC4=O)C5=O)CC3)cc2)ncc1Cl (stereo not drawn) [SK.3.87] , field logFC of FER: −1.97

====

I'd appreciate it if you could supply logFC values for the items below.
- System name: UniProtKB P06493
- Sequence (P06493 whole entry): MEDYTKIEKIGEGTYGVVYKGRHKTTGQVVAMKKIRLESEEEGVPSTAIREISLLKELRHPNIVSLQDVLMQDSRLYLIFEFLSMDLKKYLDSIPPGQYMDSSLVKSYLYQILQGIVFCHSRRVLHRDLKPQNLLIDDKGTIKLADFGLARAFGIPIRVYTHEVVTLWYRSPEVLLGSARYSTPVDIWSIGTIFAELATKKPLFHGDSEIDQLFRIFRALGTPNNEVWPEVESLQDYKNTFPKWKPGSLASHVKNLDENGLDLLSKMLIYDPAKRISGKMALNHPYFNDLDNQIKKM
- Assay type: cell-based
- Condition set: CDK1 P06493; experiment wp146

Molecule: Cc1cc(S(=O)(=O)NCCOCCOCCOCCOCCNc2cccc3c2C(=O)N(C2CCC(=O)NC2=O)C3=O)ccc1Nc1ncc(Br)c(Nc2cccc(F)c2C(N)=O)n1 (stereo not shown)
logFC: −1.302

Kindly give each listed record's logFC.
1. NC(=O)c1c(F)cccc1Nc1nc(NC2CCN(S(=O)(=O)CCNC(=O)CCCCCCCCOc3cccc4c3C(=O)N(C3CCC(=O)NC3=O)C4=O)CC2)ncc1Br (stereo not shown)
2. NC(=O)c1c(F)cccc1Nc1nc(Nc2ccc(S(=O)(=O)NCCOCCOCCOCCOCCNc3cccc4c3C(=O)N(C3CCC(=O)NC3=O)C4=O)cc2)ncc1Br (stereo not shown)
3. Cc1cc(Nc2ncc(Br)c(Nc3cccc(F)c3C(N)=O)n2)ccc1S(=O)(=O)NCCOCCOCCOCCOCCNc1cccc2c1C(=O)N(C1CCC(=O)NC1=O)C2=O (stereo not shown)

1: −1.423; 2: −1.641; 3: −1.629
